ELISA data: recorded values
# Assay Target: T1, CD81 (UniProt P60033 1-236, limits assumed)
# T1 construct: whole, on cells; also called CD81 receptor
# T1 sequence (looked up): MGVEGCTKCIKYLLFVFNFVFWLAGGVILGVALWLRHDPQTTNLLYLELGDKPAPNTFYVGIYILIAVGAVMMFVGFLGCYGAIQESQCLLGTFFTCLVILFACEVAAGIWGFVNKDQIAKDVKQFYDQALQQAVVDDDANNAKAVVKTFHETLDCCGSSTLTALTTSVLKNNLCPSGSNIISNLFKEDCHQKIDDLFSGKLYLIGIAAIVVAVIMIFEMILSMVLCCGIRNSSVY
# Measurement Notes: cell ELISA;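 note: antibody binding to HuH7 cells expressing CD81 versus a CD81-negative HuH7 control line, bound antibody detected by secondary reagent, absorbance at 450 nm with 620 nm reference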
Just the number, please, no unit after it.

In the examples that follow, each entry is paired with its recorded ELISA data.
binder="CD81K13 HC 04-hVH_1_69 / LC 04-hVK_1_9 (antibody, V domains shown, human constant region) VH: EVQLVESGGGLVQPGRSLRLSCTASGFNFKDSYLHWVRQAPGQGLEWMGRIDTGNGNVKFDPKFQGRVTITADESTSTAYMELSSLRSEDTAVYYCVPYGYGFHSWGQGTLVTVSS VL: DIQLTQSPSFLSASVGDRVTITCRASENIYRTLAWYQQKPGKAPKLLIYAATTLASGVPSRFSGSGSGTEFTLTISSLQPEDFGTYYCQHFWGTPWTFGQGTKVEIK" assay_readout="ELISA data" assay_value=0.459
binder="CD81K13 HC 02-hVH_1_3 / LC 04-hVK_1_9 (antibody, V domains shown, human constant region) VH: QVQLVQSGAEVKKPGASVKVSCKASGYTFTDSYMHWVRQAPGQRLEWMGRIDTGNGNTKYSQKFQGRVTITTDTSASTAYMELSSLRSEDTAVYYCAPYGYGFHSWGQGTLVTVSS VL: DIQLTQSPSFLSASVGDRVTITCRASENIYRTLAWYQQKPGKAPKLLIYAATTLASGVPSRFSGSGSGTEFTLTISSLQPEDFGTYYCQHFWGTPWTFGQGTKVEIK" assay_readout="ELISA data" assay_value=0.163

Let us move to another entry and its ELISA data.
Consider CD81K13 HC 5b-hVH_1_69 / LC 03-hVK_1_9 (antibody, V domains shown, human constant region) VH: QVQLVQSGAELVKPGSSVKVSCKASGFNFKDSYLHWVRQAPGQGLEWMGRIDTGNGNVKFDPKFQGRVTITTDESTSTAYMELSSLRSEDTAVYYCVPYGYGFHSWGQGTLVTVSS VL: DIQLTQSPSFLSASVGDRVTITCRASENIYRTLAWYQQKPGKAPKLLIYAATTLASGVPSRFSGSGSGTEFTLTISSLQPEDFATYYCQHFWGTPWTFGQGTKVEIK . Its measured ELISA data is 0.73
